assay: qHTS assay for re-activators of p53 using a Luc reporter: Hit Validation; settings: p53-responsive luciferase reporter cells, luminescence, H1299 line expressing heat-sensitive Ala138Val p53; series mostly up to 46.1 µM; also: nearly all actives have a fitted effect of over 75% in size
Results filed as inconclusive are left out. Calls of active or inactive are those of the source. Calls follow the shape of the dose curve; as a rule, active = well fitted activation curve with a large enough effect; inconclusive = small, poorly fitted or top-dose-only effect; inactive = no such curve, though single readings can be large or run the other way.
// classify into active, inactive

{"columns": ["Molecule", "Class Name"],
 "data": [
  ["Cc1nn(-c2ccccc2)c(C)c1/C=N/Nc1nc2ccccc2[nH]1", "active"],
  ["COc1cc(NC(=O)CSCc2ccc(Cl)cc2)c(C(=O)O)cc1OC", "inactive"],
  ["Cc1ccc(NC(=O)Nc2ccccc2)c(Br)c1", "active"],
  ["COc1ccccc1-c1c(C)nn2c(C)c(C(C)=O)cnc12", "inactive"]
]}

[ask] Which outcome was entered for the molecule Cc1ccc(C)n1-c1sc2c(c1C(=O)O)CCCC2 in this test?
[reply] inactive

[ask] Which outcome was entered for the molecule COc1ccc(S(=O)(=O)NC2CC(C)(C)NC(C)(C)C2)c2ccccc12 in this test?
[reply] inactive

====

assay: qHTS assay for re-activators of p53 using a Luc reporter: Hit Validation; details: p53-responsive luciferase reporter cells, luminescence, H1299 line expressing heat-sensitive Ala138Val p53; series mostly up to 46.1 µM; also: nearly all actives have a fitted effect of over 75% in size
Inconclusive results are not listed. Calls of active or inactive are those of the source. Calls follow the shape of the dose curve; as a rule, active = well fitted activation curve with a large enough effect; inconclusive = small, poorly fitted or top-dose-only effect; inactive = no such curve, though single readings can be large or run the other way.
// classify into active, inactive

Use these answered entries as a reference point.
{"columns": ["Compound", "Class Name"],
 "data": [
  ["CC1Cc2ccccc2N1C(=O)COC(=O)C1(c2ccccc2F)CCCC1 (stereo unspecified)", "inactive"],
  ["CCCOc1ccc(-c2cc3onc(-c4ccccc4)c3c(=O)n2C)cc1", "active"],
  ["O=C(Nc1ccccc1Oc1ccccc1)c1cc([N+](=O)[O-])ccc1Cl", "inactive"],
  ["Cc1ccc(-n2c(C)cc(C(=O)CSc3nnc4ccccn34)c2C)cc1", "active"],
  ["O=C(Nc1nc2c(s1)CCCC2)C1COc2ccccc2O1 (stereo unspecified)", "active"],
  ["Cc1ccc(-c2nc(-c3cccnc3)no2)c(C)c1", "active"],
  ["CSCCC(NC(=O)c1ccc(Cl)cc1Cl)C(=O)N1CC(C)OC(C)C1 (stereo unspecified)", "inactive"],
  ["CC1C(=O)CCN(C(C)(C)C)C1C (stereo unspecified)", "inactive"]
]}

[ask] Which outcome was entered for the compound CC(=O)c1cccc(NC(=O)c2sc(Cl)nc2C)c1 in this test?
[reply] inactive

[ask] Which outcome was entered for the compound CCOc1ccc(NC(=O)/C=C/c2ccccc2)c([N+](=O)[O-])c1 in this test?
[reply] active

[ask] Which outcome was entered for the compound O=C(NCCC1=CCCCC1)c1ccc(F)c(S(=O)(=O)N2CCOCC2)c1 in this test?
[reply] inactive

====

experiment: qHTS assay for re-activators of p53 using a Luc reporter: Hit Validation; details: p53-responsive luciferase reporter cells, luminescence, H1299 line expressing heat-sensitive Ala138Val p53; series mostly up to 46.1 µM; also: nearly all actives have a fitted effect of over 75% in size
Results filed as inconclusive are left out. Active and inactive are the calls of the source. The call rests on the fitted dose curve; in most records, active means well fitted activation curve with a large enough effect; inconclusive means small, poorly fitted or top-dose-only effect; inactive means no such curve, though single readings can be large or run the other way.
// classify into true = active, false = inactive

Use these answered entries as a reference point.
{"columns": ["Compound", "Class Name"],
 "data": [
  ["COc1ccccc1Oc1c(C)oc2c(CN(C)C)c(O)ccc2c1=O", "false"],
  ["N#C/C(=C\\c1ccccc1[N+](=O)[O-])c1nc(C2CC2)cs1", "true"],
  ["Cc1ccc(C(=O)Nc2cnc3sc(C)nn3c2=O)cc1", "true"],
  ["Brc1c(CSc2nc3ccccc3s2)nc2ncccn12", "true"],
  ["COc1ccc(C(=O)Nc2nnc(C(F)(F)F)s2)cc1", "true"],
  ["CN1CCN(C(=O)CCCN2C(=O)/C(=C/c3ccc(Cl)cc3)SC2=S)CC1", "true"],
  ["O=C(Nc1cnc2ccccc2c1)C1COc2ccccc2O1 (stereo not drawn)", "true"]
]}

[ask] Which outcome was entered for the compound Cc1cccc(NC(=O)/C=C/c2ccc([N+](=O)[O-])s2)c1 in this test?
[reply] false
